IC50 for Serine/threonine-protein kinase ATR (Homo sapiens, UniProt Q13535), merged from several publications.
reportedProperty: IC50 (nM)

INSERT INTO assay_data (molecule, measurementtarget, unitofmeasure, boundtype, reading) VALUES
  ('C[C@H]1COCCN1c1cc(N2CC3CCC(C2)O3)nn2c(-c3cc[nH]n3)ncc12', 'Serine/threonine-protein kinase ATR (Homo sapiens, UniProt Q13535)', 'nM', '=', 22),
  ('CC(C)n1c(=O)n(C)c2nnc3ccc(-c4ccc([C@@H](C)OCCN5CC[C@@H](OC6CC6)C5)nc4)cc3c21', 'Serine/threonine-protein kinase ATR (Homo sapiens, UniProt Q13535)', 'nM', '>', 10000),
  ('CC[C@@H]1COc2c(-c3ccc(OCCCN4CCCCC4)nc3)c(F)cc3ncc4c(c23)n1c(=O)n4C', 'Serine/threonine-protein kinase ATR (Homo sapiens, UniProt Q13535)', 'nM', '>', 10000),
  ('c1cc(-c2ncc3c(N4CCOCC4)cc(N4CC5CCC(C4)O5)nn23)n[nH]1', 'Serine/threonine-protein kinase ATR (Homo sapiens, UniProt Q13535)', 'nM', '=', 21.4),
  ('C[C@@H]1CC(F)(F)CCN1c1cc(N2CC3CCC(C2)O3)nn2c(-c3cc[nH]n3)ncc12', 'Serine/threonine-protein kinase ATR (Homo sapiens, UniProt Q13535)', 'nM', '=', 3.9),
  ('CC(=O)N1CCN(c2cc(N3C[C@H]4CC[C@@H](C3)O4)nc3c2cnn3-c2cc[nH]n2)[C@H](C)C1', 'Serine/threonine-protein kinase ATR (Homo sapiens, UniProt Q13535)', 'nM', '=', 7.6),
  ('Cn1nccc1-c1cc(N2CC3CCC(C2)O3)nn2c(-c3cc[nH]n3)cnc12', 'Serine/threonine-protein kinase ATR (Homo sapiens, UniProt Q13535)', 'nM', '=', 149),
  ('OCC1COCCN1c1cc(N2C[C@H]3CC[C@@H](C2)O3)nc2c1cnn2-c1cc[nH]n1 (some centres unmarked)', 'Serine/threonine-protein kinase ATR (Homo sapiens, UniProt Q13535)', 'nM', '=', 15.3);
